PROTOCOL: Cytotoxicity in HepG2 cells, Resazurin assay
CONDITIONS: human, HepG2 cells, TOX-HepG2-4 d CC50 (μM), HepG2 cells incubated for 4 days, viability by Resazurin assay
PROPERTY_LABEL: CC50 at 4 days

Please review the entries below; each comes with its answer.
COMPOUND	CC50 at 4 days
Cn1cc2c(c1C(=O)Nc1ccc(F)c(F)c1)OCC(C(=O)O)NS2(=O)=O (centres unmarked) [compound 242]	> 25 µM
Cn1cc2c(c1C(=O)Nc1ccc(F)c(F)c1)OC[C@H](C(C)(C)O)NS2(=O)=O [Compound 93]	> 25 µM
CCC(O)[C@@H]1COc2c(cn(C)c2C(=O)Nc2ccc(F)c(F)c2)S(=O)(=O)N1 (stereo in doubt) [Compound 142b]	> 25 µM
Cc1cc(NC(=O)c2c3c(cn2C)S(=O)(=O)NC(C(C)C)CC3)ccc1F (centres unmarked) [Compound 109]	> 25 µM
Cn1ccnc1CC1(C)COc2c(cn(C)c2C(=O)Nc2ccc(F)c(F)c2)S(=O)(=O)N1 (centres unmarked) [Compound 173]	> 25 µM
C[C@@H](O)[C@H]1C=Cc2c(cn(C)c2C(=O)Nc2ccc(F)c(F)c2)S(=O)(=O)N1 [Compound 69]	> 25 µM
CC[C@H](C)[C@H]1COc2c(cn(C)c2C(=O)Nc2ccc(F)c(F)c2)S(=O)(=O)N1 [Compound 23]	10.6 µM

*Q* Given Cn1cc2c(c1C(=O)Nc1ccc(F)c(Br)c1F)CCC(C(C)(C)O)NS2(=O)=O (centres unmarked) [Compound 179] , state its recorded CC50 at 4 days.
*A* > 25 µM

* * *

Here the recorded melting point is given for each entry.
Just the number in °C, nothing appended.

Please review the entries below; each comes with its answer.
COMPOUND	UNIT	melting point
Cn1ccnc1CC1(C)COc2c(cn(C)c2C(=O)Nc2ccc(F)c(C(F)F)c2)S(=O)(=O)N1 (stereo not shown)	°C	282.8
C[C@H](O)[C@H]1C=Cc2c(cn(C)c2C(=O)Nc2cc(F)c(F)c(F)c2)S(=O)(=O)N1	°C	244
CCC(O)[C@@H]1COc2c(cn(C)c2C(=O)Nc2ccc(F)c(C(F)F)c2)S(=O)(=O)N1 (stereo in doubt)	°C	224.6
Cn1cc2c(c1C(=O)Nc1ccc(F)c(F)c1)C=CCNS2(=O)=O	°C	221.9
Cn1cc2c(c1C(=O)Nc1ccc(F)c(F)c1)OC[C@H](C(O)C1CC1)NS2(=O)=O (stereo partly shown)	°C	244.8

*Q* Given Cn1cc2c(c1C(=O)Nc1ccc(F)c(C#N)c1)OC[C@H](C(C)(C)O)NS2(=O)=O , state its recorded melting point.
*A* 260.1

*Q* Given CCC(O)[C@H]1COc2c(cn(C)c2C(=O)Nc2ccc(F)c(F)c2)S(=O)(=O)N1 (stereo partly shown) , state its recorded melting point.
*A* 214.6

*Q* Given Cn1cc2c(c1C(=O)Nc1ccnc(Cl)c1)OC[C@H](C(C)(C)O)NS2(=O)=O , state its recorded melting point.
*A* 246.6

*Q* Given Cn1cc2c(c1C(=O)Nc1ccc(F)c(C(F)F)c1)OC[C@H](C(O)C1CC1)NS2(=O)=O (stereo partly shown) , state its recorded melting point.
*A* 240.7

*Q* Given CC(N)[C@H]1CCc2c(cn(C)c2C(=O)Nc2cc(F)c(F)c(F)c2)S(=O)(=O)N1 (stereo in doubt) , state its recorded melting point.
*A* 281.2

*Q* Given Cn1cc2c(c1C(=O)Nc1ccc(F)c(C(F)F)c1F)OC[C@H](C(C)(C)O)NS2(=O)=O , state its recorded melting point.
*A* 182.1

*Q* Given Cn1cc2c(c1C(=O)Nc1ccc(F)c(Cl)c1)OC[C@H](C(C)(C)O)NS2(=O)=O , state its recorded melting point.
*A* 234.1

*Q* Given Cn1ccnc1CC1(C)COc2c(cn(C)c2C(=O)Nc2ccc(F)c(F)c2)S(=O)(=O)N1 (stereo not shown) , state its recorded melting point.
*A* 297.1

These measurements were taken from patent US10875876B2.
